- Test system: MCF-7 for breast cancer
- assay-notes: SRB cytotoxicity assay
- Type: cell-based
- condition-info: Homo sapiens, MCF7, 72 h, 3 days
observed-property: IC50 (µg/mL)
// note: answer is a bare numeric in µg/mL

>  <compound>
N#CC12C(=N)NC(=S)N=C1N=C(CN1C(=O)c3c(Br)c(Br)c(Br)c(Br)c3C1=O)OC2c1ccccc1 (centres unmarked) [Compound 4b]

>  <subject-of-test>
MCF-7 for breast cancer

>  <IC50 / µg/mL>
16.6

$$$$
>  <compound>
N#CC12C(=O)NC(=S)N=C1N=C(CN1C(=O)c3c(Br)c(Br)c(Br)c(Br)c3C1=O)OC2c1ccccc1 (centres unmarked) [Compound 2b]

>  <subject-of-test>
MCF-7 for breast cancer

>  <IC50 / µg/mL>
13.8

$$$$
>  <compound>
N#CC12C(=N)NC(=O)N=C1N=C(CN1C(=O)c3c(Br)c(Br)c(Br)c(Br)c3C1=O)OC2c1ccccc1 (centres unmarked) [Compound 4a]

>  <subject-of-test>
MCF-7 for breast cancer

>  <IC50 / µg/mL>
21.7

$$$$
>  <compound>
N#CC12C(=N)NN=C1N=C(CN1C(=O)c3c(Br)c(Br)c(Br)c(Br)c3C1=O)OC2c1ccccc1 (centres unmarked) [Compound 3]

>  <subject-of-test>
MCF-7 for breast cancer

>  <IC50 / µg/mL>
15.5

$$$$

Enquiry: Which measured IC50 value corresponds to N#CC12C(=O)NN=C1N=C(CN1C(=O)c3c(Br)c(Br)c(Br)c(Br)c3C1=O)OC2c1ccccc1 (centres unmarked) [Compound 5] ?
Return: 12.3

Recorded values, source paper PMC8468439.
